Reported melting point values for the following molecules.

molecule: CC(C)N(c1ccc(C(=O)O)cc1)c1nc(-c2cccc(OCc3ccc(C4CCCCC4)cc3)c2)cs1 [Example 141]
melting point: 189 to 190 °C
--
molecule: O=C(O)c1ccc(C2(c3nc(-c4ccc(OCc5ccc(C6CCCCC6)cc5)cc4)cs3)CCOCC2)cc1 [Example 101]
melting point: 230 °C (dec.)
--
molecule: O=C(O)c1ccc(Nc2nc(-c3cc(Cl)ccc3OCc3ccc(C(F)(F)F)cc3)cs2)c(OCCC2CCCCC2)c1 [Example 179]
melting point: 134 to 140 °C

Task: Request the reported melting point associated with O=C(O)c1ccc(C(=O)c2nc(-c3ccc(OCc4ccc(C5CCCCC5)cc4)cc3)cs2)cc1 [Example 71]
Output: 259 to 261 °C

Task: Request the reported melting point associated with CN(Cc1ccc(C2CCCCC2)cc1)c1ccc(-c2csc(N(C)Cc3ccc(C(=O)[O-])cc3)n2)cc1.[Na+] [Example 102]
Output: 240 °C

Task: Request the reported melting point associated with COc1ccc(OCc2ccc(C3CCCCC3)cc2)c(-c2csc(Nc3ccc(C(=O)O)cc3)n2)c1 [Example 157]
Output: 230 to 234 °C

Task: Request the reported melting point associated with O=C(O)c1ccc(Nc2nc(-c3ccc(OCc4ccc(Cl)c(Cl)c4)cc3)cs2)cc1 [Example 94]
Output: 230 °C (dec.)
